Form field: AUC(0-inf) (one value per entry).
# procedure_details: Pharmacokinetic evaluation in rat
# Assay type: in vivo
# condition_set: male, Sprague-Dawley, plasma, single 5 mg/kg oral dose, Table 1, read-out: Pharmacokinetic area under the plasma concentration Curve (rat) AUC0-∞

// worked examples, AUC(0-inf) included
[[record]]
molecule = "O=C(NS(=O)(=O)c1ccc(N[C@H](CCN2CCCC2)CSc2ccccc2)c(S(=O)(=O)C(F)(F)F)c1)c1ccc(N2CCN(CC3=C(c4ccc(Cl)cc4)CCCCC3)CC2)cc1"
property_name = "AUC(0-inf)"
recorded_result = "1.74 µM·h"

[[record]]
molecule = "CC1(C)CCC(CN2CCN(c3ccc(C(=O)NS(=O)(=O)c4ccc(N[C@H](CCN5CCOCC5)CSc5ccccc5)c(S(=O)(=O)C(F)(F)F)c4)cc3)CC2)=C(c2ccc(Cl)cc2)C1"
property_name = "AUC(0-inf)"
recorded_result = "8.04 µM·h"


Proceed to the following item.
AUC(0-inf) reading for O=C(NS(=O)(=O)c1ccc(N[C@H](CCN2CCCC2)CSc2ccccc2)c(S(=O)(=O)C(F)(F)F)c1)c1ccc(N2CCN(CC3=C(c4ccc(Cl)cc4)CCCC3)CC2)cc1 : 2.08 µM·h

---

# System: NCI-H146 human small cell lung carcinoma cells
# procedure_details: Cellular efficacy in human tumor cell line (MTS viability assay)
# Assay type: cell-based
# condition_set: NCI-H146; 10% human serum, 48 hours; Table 1; read-out: NCI-H146 Cellular Efficacy EC50
property_name: EC50 (nM)
State the answer as a number, implicitly in nM.

# count of solved cases: 4
[[record]]
compound = "CC(C)N(C)CC[C@H](CSc1ccccc1)Nc1ccc(S(=O)(=O)NC(=O)c2ccc(N3CCN(CC4=C(c5ccc(Cl)cc5)CCC(C)(C)C4)CC3)cc2)cc1S(=O)(=O)C(F)(F)F"
measure_unit = "nM"
recorded_result = 58.7

[[record]]
compound = "CN(C)CC[C@H](CSc1ccccc1)Nc1ccc(S(=O)(=O)NC(=O)c2ccc(N3CCN(CC4=C(c5ccc(Cl)cc5)CCCCC4)CC3)cc2)cc1S(=O)(=O)C(F)(F)F"
measure_unit = "nM"
recorded_result = 28.7

[[record]]
compound = "O=C(NS(=O)(=O)c1ccc(N[C@H](CCN2CC3CC2CO3)CSc2ccccc2)c(S(=O)(=O)C(F)(F)F)c1)c1ccc(N2CCN(CC3=C(c4ccc(Cl)cc4)CCCCC3)CC2)cc1 (some centres unmarked)"
measure_unit = "nM"
recorded_result = 27.1

[[record]]
compound = "CC(C)N(C)CC[C@H](CSc1ccccc1)Nc1ccc(S(=O)(=O)NC(=O)c2ccc(N3CCN(CC4=C(c5ccc(Cl)cc5)CCCCC4)CC3)cc2)cc1S(=O)(=O)C(F)(F)F"
measure_unit = "nM"
recorded_result = 38.8


Turning to the following compound.
Value (EC50, NCI-H146 human small cell lung carcinoma cells) for record CN(C)CC[C@H](CSc1ccccc1)Nc1ccc(S(=O)(=O)NC(=O)c2ccc(N3CCN(CC4=C(c5ccc(Cl)cc5)CC(C)(C)CC4)CC3)cc2)cc1S(=O)(=O)C(F)(F)F = 17.5

---

# procedure_details: Pharmacokinetic evaluation in rat
# Assay type: in vivo
# condition_set: male, Sprague-Dawley, plasma, 5 mg/kg, oral, Table 3, read-out: Pharmacokinetic area under the plasma concentration Curve (rat) AUC
property_name: AUC (µM·h)
Record the value in µM·h, omitting the unit from your answer.

[[record]]
compound = "O=C(NS(=O)(=O)c1ccc(N[C@H](CCN2C3CCC2CC3)CSc2ccccc2)c(S(=O)(=O)C(F)(F)F)c1)c1ccc(N2CCN(CC3=C(c4ccc(Cl)cc4)CCCC3)CC2)cc1"
recorded_result = 1.1

[[record]]
compound = "CN(C)CC[C@H](CSc1ccccc1)Nc1ccc(S(=O)(=O)NC(=O)c2ccc(N3CCN(CC4=C(c5ccc(Cl)cc5)CCCC4)CC3)cc2)cc1S(=O)(=O)C(F)(F)F"
recorded_result = 0.803

[[record]]
compound = "O=C(NS(=O)(=O)c1ccc(N[C@H](CCN2C[C@@H]3C[C@H]2CO3)CSc2ccccc2)c(S(=O)(=O)C(F)(F)Cl)c1)c1ccc(N2CCN(CC3=C(c4ccc(Cl)cc4)CCCC3)CC2)cc1"
recorded_result = 0.913

[[record]]
compound = "O=C(NS(=O)(=O)c1ccc(N[C@H](CCN2CCOCC2)CSc2ccccc2)c(S(=O)(=O)C(F)(F)Cl)c1)c1ccc(N2CCN(CC3=C(c4ccc(Cl)cc4)CCCC3)CC2)cc1"
recorded_result = 4.13

[[record]]
compound = "CC(C)N(C)CC[C@H](CSc1ccccc1)Nc1ccc(S(=O)(=O)NC(=O)c2ccc(N3CCN(CC4=C(c5ccc(Cl)cc5)CCCC4)CC3)cc2)cc1S(=O)(=O)C(F)(F)F"
recorded_result = 3.01


Noted for CN(C)CC[C@H](CSc1ccccc1)Nc1ccc(S(=O)(=O)NC(=O)c2ccc(N3CCN(CC4=C(c5ccc(Cl)cc5)CCCC4)CC3)cc2)cc1[N+](=O)[O-] [G, reference compound] : its AUC reads 0.507

What the record says about CN(C)CC[C@H](CSc1ccccc1)Nc1ccc(S(=O)(=O)NC(=O)c2ccc(N3CCN(CC4=C(c5ccc(Cl)cc5)CCCC4)CC3)cc2)cc1C(F)(F)F [H, reference compound] : AUC is 1.97
